As shown below, each of these molecules has a reported F value.
Test: Rat PK study (single IV and PO dose, plasma LC-MS/MS)
Format: in vivo, S-D rats
Conditions: S-D rats, PO 10 mg/kg vs IV 2 mg/kg
PROPERTY NAME: F (%)

1) COc1cc2c(cc1O[C@H]1C[C@H](OC)C1)C[C@@H](C(C)C)n1cc(C(=O)O)c(=O)cc1-2 = 37.7
2) COCC1(COc2cc3c(cc2OC)-c2cc(=O)c(C(=O)O)cn2[C@H](C(C)C)C3)COC1 = 8.1
3) COCC1(COc2cc3c(cc2OC)-c2cc(=O)c(C(=O)O)cn2[C@H](C(C)C)C3)CC1 = 45.8
4) COc1cc2c(cc1OCCCC(C)=O)C[C@@H](C(C)C)n1cc(C(=O)O)c(=O)cc1-2 = 4.3
5) COc1cc2c(cc1C#CC1CC1)C[C@@H](C(C)C)n1cc(C(=O)O)c(=O)cc1-2 = 11.5
